Cited source: ChEMBL document CHEMBL3734685

# assay explanation: Cytotoxicity against human HeLa cells assessed as cell viability at 1 uM after 24 hrs by MTT assay
# Assay type: cell-based
# condition: read-out: Activity
recorded metric: viability at 24 h, 1 µM (%)
Write the value in % as a bare number.

Cc1ccc(-c2cc(-c3cccc(C(=O)N4CCCCC4)c3)nc(N)n2)o1	64.3
Cc1ccc(-c2cc(-c3cccc(C(=O)N4CCCC4)c3)nc(N)n2)o1	101
Cc1ccc(-c2cc(-c3cccc(C(=O)N4CCOCC4)c3)nc(N)n2)o1	98.6
Cc1ccc(-c2cc(-c3cccc(C(=O)N4CCN(C)CC4)c3)nc(N)n2)o1	107

Note: attention shifts to another entry.
Req: Please look up its viability at 24 h, 1 µM: CCN1CCN(C(=O)c2cccc(-c3cc(-c4ccc(C)o4)nc(N)n3)c2)CC1
Resp: 65.7

###

# tested target: Adenosine receptor A1 (Rattus norvegicus, UniProt P25099)
# Sequence (P25099 whole entry): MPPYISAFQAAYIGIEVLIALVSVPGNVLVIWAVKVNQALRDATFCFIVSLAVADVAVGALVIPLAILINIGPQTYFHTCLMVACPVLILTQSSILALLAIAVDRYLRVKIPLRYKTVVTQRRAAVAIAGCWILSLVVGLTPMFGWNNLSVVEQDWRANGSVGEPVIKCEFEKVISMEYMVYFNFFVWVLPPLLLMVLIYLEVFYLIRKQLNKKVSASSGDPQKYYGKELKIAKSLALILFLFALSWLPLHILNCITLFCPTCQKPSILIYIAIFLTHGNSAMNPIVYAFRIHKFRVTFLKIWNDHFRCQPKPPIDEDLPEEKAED
# assay explanation: Displacement of [3H]DPCPX from adenosine A1 receptor in Sprague-Dawley rat whole brain membranes after 1 hr by scintillation counting analysis
recorded metric: pKi
# reply with the number alone; pKi is -log10 of concentration in mol/L

# annotated cases, reported pKi shown
Cc1ccc(-c2cc(-c3cccc(C(=O)N4CCN(C)CC4)c3)nc(N)n2)o1	6.87
Nc1nc(-c2cccc(Cl)c2)cc(-c2ccco2)n1	7.41
Cc1ccc(-c2cc(-c3cccc(C(=O)N4CCOCC4)c3)nc(N)n2)o1	7.28

Req: Please look up its pKi: COc1cccc(-c2cc(-c3ccc(C)o3)nc(N)n2)c1
Resp: 6.84

Req: Please look up its pKi: Nc1nc(-c2ccccc2)cc(-c2cccc(Cl)c2)n1
Resp: 7.64

Req: Please look up its pKi: COc1cccc(-c2cc(-c3ccco3)nc(N)n2)c1
Resp: 7.21

Req: Please look up its pKi: Nc1nc(-c2ccc(F)cc2)cc(-c2ccco2)n1
Resp: 6.80

Req: Please look up its pKi: Cc1ccc(-c2cc(-c3cccc(Cl)c3)nc(N)n2)o1
Resp: 6.89

Req: Please look up its pKi: Cc1ccc(-c2cc(-c3cccc(C(=O)N4CCCC4)c3)nc(N)n2)o1
Resp: 7.43

Req: Please look up its pKi: Cc1ccc(-c2cc(-c3cccc(C(=O)N4CCCCC4)c3)nc(N)n2)o1
Resp: 8.02

Req: Please look up its pKi: COc1ccc(-c2cc(-c3ccc(C)o3)nc(N)n2)cc1OC
Resp: 6.19

Req: Please look up its pKi: CCN1CCN(C(=O)c2cccc(-c3cc(-c4ccc(C)o4)nc(N)n3)c2)CC1
Resp: 7.43

Req: Please look up its pKi: Cc1ccc(-c2cc(-c3ccc(Cl)cc3)nc(N)n2)o1
Resp: 6.36

###

Documented Ratio Ki across a set of compounds
# Organism: Rattus norvegicus
# assay explanation: Selectivity index, ratio of Ki for adenosine A2A receptor in Sprague-Dawley rat striatal membranes to Ki for adenosine A1 receptor in Sprague-Dawley rat whole brain membranes
Please give the numeric answer without any surrounding text.

# annotated cases, reported Ratio Ki shown
Cc1ccc(-c2cc(-c3cccc(Cl)c3)nc(N)n2)o1	3.1
Cc1ccc(-c2cc(-c3cccc(C(=O)N4CCOCC4)c3)nc(N)n2)o1	0.6

Req: Please look up its Ratio Ki: COc1cccc(-c2cc(-c3ccco3)nc(N)n2)c1
Resp: 4.1

###

# tested target: Adenosine receptor A2a (Rattus norvegicus, UniProt P30543)
# Sequence (P30543 whole entry): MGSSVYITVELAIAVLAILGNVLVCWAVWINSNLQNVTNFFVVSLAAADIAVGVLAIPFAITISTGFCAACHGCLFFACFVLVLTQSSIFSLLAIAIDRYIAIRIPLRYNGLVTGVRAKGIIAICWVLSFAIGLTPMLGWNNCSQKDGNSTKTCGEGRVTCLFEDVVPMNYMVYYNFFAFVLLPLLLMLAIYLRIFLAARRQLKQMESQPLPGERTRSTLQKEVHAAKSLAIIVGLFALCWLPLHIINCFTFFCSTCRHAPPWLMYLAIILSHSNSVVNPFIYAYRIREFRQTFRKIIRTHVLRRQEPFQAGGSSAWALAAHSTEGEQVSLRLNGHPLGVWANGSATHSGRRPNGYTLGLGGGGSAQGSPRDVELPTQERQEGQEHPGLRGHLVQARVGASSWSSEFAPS
Assign labels as follows, please: t for Ki below 0.03 µM; f for Ki equal to or exceeding 0.03 µM.

Solved cases (5 shown):
COc1ccc(-c2cc(-c3ccc(C)o3)nc(N)n2)cc1OC	f
Cc1ccc(-c2cc(-c3cccc(Cl)c3)nc(N)n2)o1	f
Nc1nc(-c2ccccc2)cc(-c2cccc(Cl)c2)n1	f
Cc1ccc(-c2cc(-c3cccc(C(=O)N4CCCCC4)c3)nc(N)n2)o1	t
Cc1ccc(-c2cc(-c3ccc(Cl)cc3)nc(N)n2)o1	f

Req: Is Ki of COc1cccc(-c2cc(-c3ccco3)nc(N)n2)c1 strictly below 0.03 µM?
Resp: f

Req: Is Ki of Cc1ccc(-c2cc(-c3cccc(C(=O)N4CCN(C)CC4)c3)nc(N)n2)o1 strictly below 0.03 µM?
Resp: t

Req: Is Ki of CCN1CCN(C(=O)c2cccc(-c3cc(-c4ccc(C)o4)nc(N)n3)c2)CC1 strictly below 0.03 µM?
Resp: f

###

# assay explanation: Cytotoxicity against human HeLa cells assessed as cell viability at 10 uM after 24 hrs by MTT assay
# Type: cell-based
# condition: read-out: Activity
Documented viability at 24 h, 10 µM across a set of molecules
Write the value in % as a bare number.

# annotated cases, reported viability at 24 h, 10 µM shown
Cc1ccc(-c2cc(-c3cccc(C(=O)N4CCCCC4)c3)nc(N)n2)o1	61.6
Cc1ccc(-c2cc(-c3cccc(C(=O)N4CCCC4)c3)nc(N)n2)o1	67.9
Cc1ccc(-c2cc(-c3cccc(C(=O)N4CCN(C)CC4)c3)nc(N)n2)o1	76.8

Req: Please look up its viability at 24 h, 10 µM: CCN1CCN(C(=O)c2cccc(-c3cc(-c4ccc(C)o4)nc(N)n3)c2)CC1
Resp: 60.1

Req: Please look up its viability at 24 h, 10 µM: Cc1ccc(-c2cc(-c3cccc(C(=O)N4CCOCC4)c3)nc(N)n2)o1
Resp: 81.7

###

# Species: Rattus norvegicus
# assay explanation: Selectivity index, ratio of Ki for adenosine A2A receptor in Sprague-Dawley rat striatal membranes to Ki for adenosine A1 receptor in Sprague-Dawley rat whole brain membranes
Assign labels as follows, please: criterion met for Ratio Ki below 2; criterion not met for Ratio Ki equal to or exceeding 2.

COc1cccc(-c2cc(-c3ccc(C)o3)nc(N)n2)c1	criterion not met
Nc1nc(-c2cccc(Cl)c2)cc(-c2ccco2)n1	criterion not met
Nc1nc(-c2ccc(F)cc2)cc(-c2ccco2)n1	criterion met
Cc1ccc(-c2cc(-c3cccc(C(=O)N4CCN(C)CC4)c3)nc(N)n2)o1	criterion met
COc1ccc(-c2cc(-c3ccc(C)o3)nc(N)n2)cc1OC	criterion not met

Req: Is Ratio Ki of Cc1ccc(-c2cc(-c3ccc(Cl)cc3)nc(N)n2)o1 strictly below 2?
Resp: criterion not met

Req: Is Ratio Ki of Cc1ccc(-c2cc(-c3cccc(C(=O)N4CCCCC4)c3)nc(N)n2)o1 strictly below 2?
Resp: criterion met

Req: Is Ratio Ki of Cc1ccc(-c2cc(-c3cccc(C(=O)N4CCCC4)c3)nc(N)n2)o1 strictly below 2?
Resp: criterion met

Req: Is Ratio Ki of CCN1CCN(C(=O)c2cccc(-c3cc(-c4ccc(C)o4)nc(N)n3)c2)CC1 strictly below 2?
Resp: criterion met

Req: Is Ratio Ki of Nc1nc(-c2ccccc2)cc(-c2cccc(Cl)c2)n1 strictly below 2?
Resp: criterion not met
